- runParameters: in isopropanol, 323.15 K

smilesRepresentation | solubility (mole fraction)
CC(C)[C@@H](C)[C@@H](O)[C@H](O)[C@@H](C)[C@H]1CC[C@H]2[C@@H]3COC(=O)[C@H]4C[C@H](O)[C@H](O)C[C@]4(C)[C@H]3CC[C@]12C | 0.00667

====

- runParameters: in acetone, 308.15 K

smilesRepresentation | solubility (mole fraction)
CC(C)[C@@H](C)[C@@H](O)[C@H](O)[C@@H](C)[C@H]1CC[C@H]2[C@@H]3COC(=O)[C@H]4C[C@H](O)[C@H](O)C[C@]4(C)[C@H]3CC[C@]12C | 0.00303

====

- runParameters: in acetonitrile, 293.15 K

smilesRepresentation | solubility (mole fraction)
CC(C)[C@@H](C)[C@@H](O)[C@H](O)[C@@H](C)[C@H]1CC[C@H]2[C@@H]3COC(=O)[C@H]4C[C@H](O)[C@H](O)C[C@]4(C)[C@H]3CC[C@]12C | 0.000258

====

- runParameters: in ethanol, 308.15 K

smilesRepresentation | solubility (mole fraction)
CC(C)[C@@H](C)[C@@H](O)[C@H](O)[C@@H](C)[C@H]1CC[C@H]2[C@@H]3COC(=O)[C@H]4C[C@H](O)[C@H](O)C[C@]4(C)[C@H]3CC[C@]12C | 0.00409

====

- runParameters: in acetone, 318.15 K
parameter: solubility (mole fraction)

smilesRepresentation | observedResult
CC(C)[C@@H](C)[C@@H](O)[C@H](O)[C@@H](C)[C@H]1CC[C@H]2[C@@H]3COC(=O)[C@H]4C[C@H](O)[C@H](O)C[C@]4(C)[C@H]3CC[C@]12C | 0.00365

====

- runParameters: in isopropanol, 308.15 K

smilesRepresentation | solubility (mole fraction)
CC(C)[C@@H](C)[C@@H](O)[C@H](O)[C@@H](C)[C@H]1CC[C@H]2[C@@H]3COC(=O)[C@H]4C[C@H](O)[C@H](O)C[C@]4(C)[C@H]3CC[C@]12C | 0.00396

====

- runParameters: in acetone, 283.15 K

smilesRepresentation | solubility (mole fraction)
CC(C)[C@@H](C)[C@@H](O)[C@H](O)[C@@H](C)[C@H]1CC[C@H]2[C@@H]3COC(=O)[C@H]4C[C@H](O)[C@H](O)C[C@]4(C)[C@H]3CC[C@]12C | 0.00144

====

- runParameters: in ethanol, 323.15 K

smilesRepresentation | solubility (mole fraction)
CC(C)[C@@H](C)[C@@H](O)[C@H](O)[C@@H](C)[C@H]1CC[C@H]2[C@@H]3COC(=O)[C@H]4C[C@H](O)[C@H](O)C[C@]4(C)[C@H]3CC[C@]12C | 0.00634

====

- runParameters: in ethanol, 293.15 K

smilesRepresentation | solubility (mole fraction)
CC(C)[C@@H](C)[C@@H](O)[C@H](O)[C@@H](C)[C@H]1CC[C@H]2[C@@H]3COC(=O)[C@H]4C[C@H](O)[C@H](O)C[C@]4(C)[C@H]3CC[C@]12C | 0.00296

====

- runParameters: in acetonitrile, 298.15 K
parameter: solubility (mole fraction)

smilesRepresentation | parameter | observedResult
CC(C)[C@@H](C)[C@@H](O)[C@H](O)[C@@H](C)[C@H]1CC[C@H]2[C@@H]3COC(=O)[C@H]4C[C@H](O)[C@H](O)C[C@]4(C)[C@H]3CC[C@]12C | solubility (mole fraction) | 0.000322

====

- runParameters: in acetonitrile, 288.15 K

smilesRepresentation | solubility (mole fraction)
CC(C)[C@@H](C)[C@@H](O)[C@H](O)[C@@H](C)[C@H]1CC[C@H]2[C@@H]3COC(=O)[C@H]4C[C@H](O)[C@H](O)C[C@]4(C)[C@H]3CC[C@]12C | 0.000206

====

- runParameters: in acetone, 293.15 K

smilesRepresentation | solubility (mole fraction)
CC(C)[C@@H](C)[C@@H](O)[C@H](O)[C@@H](C)[C@H]1CC[C@H]2[C@@H]3COC(=O)[C@H]4C[C@H](O)[C@H](O)C[C@]4(C)[C@H]3CC[C@]12C | 0.00207

====

- runParameters: in isopropanol, 293.15 K

smilesRepresentation | solubility (mole fraction)
CC(C)[C@@H](C)[C@@H](O)[C@H](O)[C@@H](C)[C@H]1CC[C@H]2[C@@H]3COC(=O)[C@H]4C[C@H](O)[C@H](O)C[C@]4(C)[C@H]3CC[C@]12C | 0.00209

====

- runParameters: in acetone, 303.15 K

smilesRepresentation | solubility (mole fraction)
CC(C)[C@@H](C)[C@@H](O)[C@H](O)[C@@H](C)[C@H]1CC[C@H]2[C@@H]3COC(=O)[C@H]4C[C@H](O)[C@H](O)C[C@]4(C)[C@H]3CC[C@]12C | 0.00273

====

- runParameters: in acetonitrile, 323.15 K

smilesRepresentation | solubility (mole fraction)
CC(C)[C@@H](C)[C@@H](O)[C@H](O)[C@@H](C)[C@H]1CC[C@H]2[C@@H]3COC(=O)[C@H]4C[C@H](O)[C@H](O)C[C@]4(C)[C@H]3CC[C@]12C | 0.000879

====

- runParameters: in isopropanol, 283.15 K

smilesRepresentation | solubility (mole fraction)
CC(C)[C@@H](C)[C@@H](O)[C@H](O)[C@@H](C)[C@H]1CC[C@H]2[C@@H]3COC(=O)[C@H]4C[C@H](O)[C@H](O)C[C@]4(C)[C@H]3CC[C@]12C | 0.00136

====

- runParameters: in acetone, 313.15 K

smilesRepresentation | solubility (mole fraction)
CC(C)[C@@H](C)[C@@H](O)[C@H](O)[C@@H](C)[C@H]1CC[C@H]2[C@@H]3COC(=O)[C@H]4C[C@H](O)[C@H](O)C[C@]4(C)[C@H]3CC[C@]12C | 0.00334

====

- runParameters: in acetonitrile, 283.15 K
parameter: solubility (mole fraction)

smilesRepresentation | observedResult
CC(C)[C@@H](C)[C@@H](O)[C@H](O)[C@@H](C)[C@H]1CC[C@H]2[C@@H]3COC(=O)[C@H]4C[C@H](O)[C@H](O)C[C@]4(C)[C@H]3CC[C@]12C | 0.000162

Data credit: BigSolDB 2.1
